Biological target: pim-1 kinase (Homo sapiens, UniProt P11309)
Construct: The kinase used was cloned, expressed and purified using proprietary methods
Sequence (P11309 whole entry): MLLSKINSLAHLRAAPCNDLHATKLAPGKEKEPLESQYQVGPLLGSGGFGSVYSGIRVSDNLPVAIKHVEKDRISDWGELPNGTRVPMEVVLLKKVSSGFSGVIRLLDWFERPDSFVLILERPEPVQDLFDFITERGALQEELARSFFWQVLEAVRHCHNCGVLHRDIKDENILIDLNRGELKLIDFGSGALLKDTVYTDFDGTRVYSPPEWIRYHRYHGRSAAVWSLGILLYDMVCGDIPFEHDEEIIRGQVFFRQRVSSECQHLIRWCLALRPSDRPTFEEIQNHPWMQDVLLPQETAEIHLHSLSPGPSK
Assay: Pim-1 kinase radioisotope (33P-ATP) assay, Kinexus compound profiling service
Type: biochemical
Conditions: at 50 μM
observable: pim-1 inhibition, in words

molecule	studySystem	pim-1 inhibition, in words
Cc1nc2sc3c(c2c(C)c1Br)NC(c1ccccc1F)NC3=O (stereo not drawn) [Compound 7b]	pim-1 kinase (Homo sapiens, UniProt P11309)	moderate
Cc1nc2sc3c(=O)[nH]c(-c4ccccc4C(F)(F)F)nc3c2c(C)c1Br [Compound 6d]	pim-1 kinase (Homo sapiens, UniProt P11309)	moderate
Cc1nc2sc3c(=O)[nH]c(-c4ccccc4F)nc3c2c(C)c1Br [Compound 6b]	pim-1 kinase (Homo sapiens, UniProt P11309)	moderate
Cc1nc2c(sc3nc(C)c(Br)c(C)c32)c(=O)[nH]1 [Compound 8a]	pim-1 kinase (Homo sapiens, UniProt P11309)	moderate
CCOC(=O)Cc1nc2c(sc3nc(C)c(Br)c(C)c32)c(=O)[nH]1 [Compound 10]	pim-1 kinase (Homo sapiens, UniProt P11309)	poor

Prompt: Query: pim-1 inhibition, in words; subject: Cc1nc2sc3c(=O)[nH]c(CC(=O)O)nc3c2c(C)c1Br [Compound 11]
Completion: poor

----------
Test system: human colon adenocarcinoma (HCT116)
Assay: MTT cytotoxicity assay, HCT116
Assay type: cell-based

molecule	cytotoxic activity on HCT116, in words
Cc1nc2sc3c(c2c(C)c1Br)NC(c1ccccc1O)NC3=O (stereo not shown) [Compound 7c]	moderate
CC(=O)Cc1nc2c(sc3nc(C)c(Br)c(C)c32)c(=O)[nH]1 [Compound 9]	weak
Cc1nc2sc3c(=O)[nH]c(-c4ccccc4O)nc3c2c(C)c1Br [Compound 6c]	moderate

----------
Recorded inhibition at 50 µM values for a group of molecules are listed next.
Biological target: pim-1 kinase (Homo sapiens, UniProt P11309)
Construct: The kinase used was cloned, expressed and purified using proprietary methods
Assay: Pim-1 kinase radioisotope (33P-ATP) assay, Kinexus compound profiling service
Format: biochemical
Conditions: test compounds at 50 μM
State just the number; it will be interpreted in %.

molecule	resultUnits	reading
CCOC(=O)Cc1nc2c(sc3nc(C)c(Br)c(C)c32)c(=O)[nH]1	%	31

Now for a further molecule.
Prompt: Tell me the measured inhibition at 50 µM of CC(=O)Cc1nc2c(sc3nc(C)c(Br)c(C)c32)c(=O)[nH]1 , please.
Completion: 89

----------
# maps each entry to its melting point

compound	melting point
CCc1nc2c(sc3nc(C)c(Br)c(C)c32)c(=O)[nH]1	> 300 °C

Prompt: What melting point value was documented for this compound, Cc1nc2sc3c(=O)[nH]c(-c4ccccc4Cl)nc3c2c(C)c1Br ?
Completion: > 300 °C

Prompt: Repeat with CCOC(=O)Cc1nc2c(sc3nc(C)c(Br)c(C)c32)c(=O)[nH]1
Completion: 277 to 278 °C

Prompt: Then this compound: Cc1nc2c(sc3nc(C)c(Br)c(C)c32)c(=O)[nH]1
Completion: > 300 °C

Prompt: Then what about the compound Cc1nc2sc3c(=O)[nH]c(-c4ccccc4F)nc3c2c(C)c1Br ?
Completion: 295 to 296 °C

Prompt: What would you report for Cc1nc2sc(C(N)=O)c(N)c2c(C)c1Br ?
Completion: 260 to 261 °C

Prompt: Next up: Cc1nc2sc3c(=O)[nH]c(-c4ccccc4C(F)(F)F)nc3c2c(C)c1Br
Completion: 255 to 256 °C

Prompt: Continue with Cc1nc2sc3c(c2c(C)c1Br)NC(c1ccccc1F)NC3=O (stereo not drawn)
Completion: 292 to 293 °C

Prompt: Now this one: Cc1nc2sc3c(=O)[nH]c(CC(=O)O)nc3c2c(C)c1Br
Completion: > 300 °C
